ASSAY SYSTEM: UniProtKB P30969
PROTOCOL DETAILS: Antiovulatory activity on proestrus following administration of solution in corn oil in rat.
Assay type: functional, organism-based
Label fulfilled when ED50 (ug injection-1) is strictly below 2; at or above that, label not fulfilled.

# example entries with known answers
INSERT INTO assay_data (compound_structure, group) VALUES
  ('CC(=O)N[C@H](Cc1ccc2ccccc2c1)C(=O)N[C@H](Cc1ccc(Cl)cc1)C(=O)N[C@H](Cc1cccnc1)C(=O)N[C@@H](CO)C(=O)N[C@@H](Cc1ccc(O)cc1)C(=O)N[C@H](CCCN=C(N)N)C(=O)N[C@@H](CC(C)C)C(=O)N[C@@H](CCCN=C(N)N)C(=O)N1CCC[C@H]1C(=O)N[C@H](C)C(N)=O', 'fulfilled'),
  ('CCNC(=NCCCC[C@@H](NC(=O)[C@H](Cc1ccc(O)cc1)NC(=O)[C@H](CO)NC(=O)[C@@H](Cc1c[nH]c2ccccc12)NC(=O)[C@@H](Cc1ccc(Cl)cc1)NC(=O)[C@@H](Cc1c[nH]c2ccccc12)NC(C)=O)C(=O)N[C@@H](CC(C)C)C(=O)N[C@@H](CCCN=C(N)N)C(=O)N1CCC[C@H]1C(=O)NCC(N)=O)NCC', 'not fulfilled'),
  ('CNC(=NCCCC[C@@H](NC(=O)[C@H](Cc1ccc(O)cc1)NC(=O)[C@H](CO)NC(=O)[C@@H](Cc1c[nH]c2ccccc12)NC(=O)[C@@H](Cc1ccc(Cl)cc1)NC(=O)[C@@H](Cc1ccc(Cl)cc1)NC(C)=O)C(=O)N[C@@H](CC(C)C)C(=O)N[C@@H](CCCN=C(N)N)C(=O)N1CCC[C@H]1C(=O)N[C@H](C)C(N)=O)NC', 'fulfilled'),
  ('CCCNC(=NCCCC[C@@H](NC(=O)[C@H](Cc1ccc(O)cc1)NC(=O)[C@H](CO)NC(=O)[C@@H](Cc1c[nH]c2ccccc12)NC(=O)[C@@H](Cc1ccc(F)cc1)NC(=O)[C@@H](Cc1ccc2ccccc2c1)NC(C)=O)C(=O)N[C@@H](CC(C)C)C(=O)N[C@@H](CCCN=C(N)N)C(=O)N1CCC[C@H]1C(=O)NCC(N)=O)NCCC', 'not fulfilled');

Query: Quick check: does CCNC(=NCCCC[C@@H](NC(=O)[C@H](Cc1ccc(O)cc1)NC(=O)[C@H](CO)NC(=O)[C@@H](Cc1c[nH]c2ccccc12)NC(=O)[C@@H](Cc1ccc(F)cc1)NC(=O)[C@@H](Cc1ccc2ccccc2c1)NC(C)=O)C(=O)N[C@@H](CC(C)C)C(=O)N[C@@H](CCCN=C(N)N)C(=O)N1CCC[C@H]1C(=O)NCC(N)=O)NCC have ED50 (ug injection-1) under 2?
Response: fulfilled

----------
ASSAY SYSTEM: Gonadotropin-releasing hormone receptor (Rattus norvegicus)
Sequence (whole entry): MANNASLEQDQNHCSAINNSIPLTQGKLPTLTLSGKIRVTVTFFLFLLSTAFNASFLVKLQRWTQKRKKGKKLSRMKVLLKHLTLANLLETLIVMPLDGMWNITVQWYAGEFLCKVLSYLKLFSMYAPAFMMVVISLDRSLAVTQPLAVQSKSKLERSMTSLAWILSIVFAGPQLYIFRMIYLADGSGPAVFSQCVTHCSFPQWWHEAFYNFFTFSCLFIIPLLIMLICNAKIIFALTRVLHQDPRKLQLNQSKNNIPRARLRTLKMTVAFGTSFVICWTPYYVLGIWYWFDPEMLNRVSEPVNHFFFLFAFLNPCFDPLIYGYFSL
PROTOCOL DETAILS: Antiovulatory activity on proestrus following administration of solution in corn oil in rat.
Format: functional, organism-based
Square brackets hold non-standard residues; d marks the D form. Peptide text beside a SMILES is read from it. dPhe(4-Cl) = N[C@H](Cc1ccc(Cl)cc1)C(=O)O; dPhe(4-F) = N[C@H](Cc1ccc(F)cc1)C(=O)O; d2Nal = N[C@H](Cc1ccc2ccccc2c1)C(=O)O
Label Condition met when ED50 (ug injection-1) is strictly below 1; at or above that, label Condition not met.

INSERT INTO results (compound, group) VALUES
  ('CC(=O)N[C@H](Cc1ccc(Cl)cc1)C(=O)N[C@H](Cc1ccc(Cl)cc1)C(=O)N[C@H](Cc1c[nH]c2ccccc12)C(=O)N[C@@H](CO)C(=O)N[C@@H](Cc1ccc(O)cc1)C(=O)N[C@H](CCCN=C(N)N)C(=O)N[C@@H](CC(C)C)C(=O)N[C@@H](CCCN=C(N)N)C(=O)N1CCC[C@H]1C(=O)N[C@H](C)C(N)=O (Ac-[dPhe(4-Cl)][dPhe(4-Cl)][dW]SY[dR]LRP[dA]-NH2)', 'Condition not met'),
  ('CNC(=NCCCC[C@@H](NC(=O)[C@H](Cc1ccc(O)cc1)NC(=O)[C@H](CO)NC(=O)[C@@H](Cc1c[nH]c2ccccc12)NC(=O)[C@@H](Cc1ccc(F)cc1)NC(=O)[C@@H](Cc1ccc2ccccc2c1)NC(C)=O)C(=O)N[C@@H](CC(C)C)C(=O)N[C@@H](CCCN=C(N)N)C(=O)N1CCC[C@H]1C(=O)NCC(N)=O)NC', 'Condition met'),
  ('CC(=O)N[C@H](Cc1ccc2ccccc2c1)C(=O)N[C@H](Cc1ccc(F)cc1)C(=O)N[C@H](Cc1c[nH]c2ccccc12)C(=O)N[C@@H](CO)C(=O)N[C@@H](Cc1ccc(O)cc1)C(=O)N[C@H](CCCN=C(N)N)C(=O)N[C@@H](CC(C)C)C(=O)N[C@@H](CCCN=C(N)N)C(=O)N1CCC[C@H]1C(=O)NCC(N)=O (Ac-[d2Nal][dPhe(4-F)][dW]SY[dR]LRPG-NH2)', 'Condition not met'),
  ('CC(=O)N[C@H](Cc1ccc(Cl)cc1)C(=O)N[C@H](Cc1ccc(Cl)cc1)C(=O)N[C@H](Cc1c[nH]c2ccccc12)C(=O)N[C@@H](CO)C(=O)N[C@@H](Cc1ccc(O)cc1)C(=O)N[C@H](CCCCN=C(N)N)C(=O)N[C@@H](CC(C)C)C(=O)N[C@@H](CCCN=C(N)N)C(=O)N1CCC[C@H]1C(=O)N[C@H](C)C(N)=O', 'Condition not met'),
  ('CC(=O)N1CCC[C@H]1C(=O)N[C@H](Cc1ccc(F)cc1)C(=O)N[C@H](Cc1ccc2ccccc2c1)C(=O)N[C@@H](CO)C(=O)NC(Cc1ccc(O)cc1)C(=O)N[C@@H](Cc1ccc2ccccc2c1)C(=O)N[C@@H](CC(C)C)C(=O)N[C@@H](CCCN=C(N)N)C(=O)N1CCC[C@H]1C(=O)NCC(N)=O (stereo in doubt)', 'Condition not met'),
  ('CCNC(=NCCCC[C@@H](NC(=O)[C@H](Cc1ccc(O)cc1)NC(=O)[C@H](CO)NC(=O)[C@@H](Cc1c[nH]c2ccccc12)NC(=O)[C@@H](Cc1ccc(Cl)cc1)NC(=O)[C@@H](Cc1ccc(Cl)cc1)NC(C)=O)C(=O)N[C@@H](CC(C)C)C(=O)N[C@@H](CCCN=C(N)N)C(=O)N1CCC[C@H]1C(=O)NCC(N)=O)NCC', 'Condition not met');

Please look at the following compound next.
Query: Quick check: does CCNC(=NCCCC[C@@H](NC(=O)[C@H](Cc1ccc(O)cc1)NC(=O)[C@H](CO)NC(=O)[C@@H](Cc1c[nH]c2ccccc12)NC(=O)[C@@H](Cc1ccc(Cl)cc1)NC(=O)[C@@H](Cc1ccc2ccccc2c1)NC(C)=O)C(=O)N[C@@H](CC(C)C)C(=O)N[C@@H](CCCN=C(N)N)C(=O)N1CCC[C@H]1C(=O)N[C@H](C)C(N)=O)NCC (stereo in doubt) have ED50 (ug injection-1) under 1?
Response: Condition met

This collection of values is drawn from ChEMBL document CHEMBL1123964.
